These entries and their values trace back to the supplement of paper PMC10567573.

B1: C8orf76 (parent)
chain: LYLQLAICSSLQNLEKTIFCLQKL

Variants of: B1
Experiment: protein stability index of a GFP-peptide fusion (GPS, HEK-293T) (PSI 1-6); higher = more stable;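 note: lentivirally expressed fusions sorted by FACS into six bins by GFP to DsRed ratio, PSI derived from sequencing read proportions per bin multiplied by bin number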
Conditions: c terminus: a fixed tail appended
Note: every record was labeled by where its protein stability index sits among bottom bin: < 2; middle bin: ≥ 2 and < 3; top bin: ≥ 3

[
  {
    "mutation.notation": "L11W",
    "discrete.label": "bottom bin"
  },
  {
    "mutation.notation": "I7G",
    "discrete.label": "top bin"
  },
  {
    "mutation.notation": "E15Q",
    "discrete.label": "top bin"
  },
  {
    "mutation.notation": "I18R",
    "discrete.label": "middle bin"
  },
  {
    "mutation.notation": "L21P",
    "discrete.label": "top bin"
  },
  {
    "mutation.notation": "Q12P",
    "discrete.label": "middle bin"
  },
  {
    "mutation.notation": "L21C",
    "discrete.label": "middle bin"
  },
  {
    "mutation.notation": "I18K",
    "discrete.label": "middle bin"
  },
  {
    "mutation.notation": "L14K",
    "discrete.label": "middle bin"
  },
  {
    "mutation.notation": "S10F",
    "discrete.label": "top bin"
  },
  {
    "mutation.notation": "K16I",
    "discrete.label": "middle bin"
  },
  {
    "mutation.notation": "K16Y",
    "discrete.label": "middle bin"
  },
  {
    "mutation.notation": "Y2N",
    "discrete.label": "middle bin"
  },
  {
    "mutation.notation": "C8E",
    "discrete.label": "top bin"
  },
  {
    "mutation.notation": "L14P",
    "discrete.label": "middle bin"
  },
  {
    "mutation.notation": "Q22N",
    "discrete.label": "middle bin"
  },
  {
    "mutation.notation": "N13S",
    "discrete.label": "top bin"
  },
  {
    "mutation.notation": "F19L",
    "discrete.label": "top bin"
  },
  {
    "mutation.notation": "Q4R",
    "discrete.label": "top bin"
  },
  {
    "mutation.notation": "K23L",
    "discrete.label": "middle bin"
  },
  {
    "mutation.notation": "I18N",
    "discrete.label": "top bin"
  },
  {
    "mutation.notation": "S10N",
    "discrete.label": "top bin"
  },
  {
    "mutation.notation": "L21D",
    "discrete.label": "middle bin"
  },
  {
    "mutation.notation": "Q22S",
    "discrete.label": "bottom bin"
  },
  {
    "mutation.notation": "A6G",
    "discrete.label": "bottom bin"
  },
  {
    "mutation.notation": "L5R",
    "discrete.label": "bottom bin"
  },
  {
    "mutation.notation": "E15D",
    "discrete.label": "bottom bin"
  },
  {
    "mutation.notation": "C8Y",
    "discrete.label": "middle bin"
  },
  {
    "mutation.notation": "Y2V",
    "discrete.label": "top bin"
  },
  {
    "mutation.notation": "I7S",
    "discrete.label": "bottom bin"
  },
  {
    "mutation.notation": "T17M",
    "discrete.label": "top bin"
  },
  {
    "mutation.notation": "Q12V",
    "discrete.label": "middle bin"
  },
  {
    "mutation.notation": "L3N",
    "discrete.label": "bottom bin"
  },
  {
    "mutation.notation": "E15L",
    "discrete.label": "top bin"
  },
  {
    "mutation.notation": "C8N",
    "discrete.label": "top bin"
  },
  {
    "mutation.notation": "S9V",
    "discrete.label": "top bin"
  },
  {
    "mutation.notation": "Q4D",
    "discrete.label": "middle bin"
  },
  {
    "mutation.notation": "A6I",
    "discrete.label": "middle bin"
  },
  {
    "mutation.notation": "T17D",
    "discrete.label": "middle bin"
  },
  {
    "mutation.notation": "Y2S",
    "discrete.label": "middle bin"
  },
  {
    "mutation.notation": "E15V",
    "discrete.label": "top bin"
  },
  {
    "mutation.notation": "N13C",
    "discrete.label": "middle bin"
  },
  {
    "mutation.notation": "C8T",
    "discrete.label": "middle bin"
  },
  {
    "mutation.notation": "L11K",
    "discrete.label": "top bin"
  },
  {
    "mutation.notation": "F19W",
    "discrete.label": "middle bin"
  }
]
